Tested on: M14 melanoma
Assay: NCI tumour cell line growth inhibition, 48 h; in the data active = GI50 below about 0.43 µM; inactive = the rest
Please answer using one outcome listed in TRUE for active, FALSE for inactive

A selection of reference data follows.
c1ccc(C2=Nc3ccccc3N3CNN=C23)cc1: FALSE
C=C1CC[C@@](C)(c2cc(Br)c(C)cc2OC(C)=O)[C@H]1C: FALSE

What was the test verdict on COc1cc(C(=O)/C=C/c2cccnc2Nc2ccc(Cl)cc2)cc(OC)c1OC ?
FALSE

Field: outcome | Entry: O=C(O)C1CC[N-]CC1.O=C(O)C1CC[N-]CC1.[NH2-].[NH2-].[Pt+4]
FALSE

Hello, I am checking results. What call was entered for Fc1ccc(C2CC(c3cccc(Nc4ccncc4)c3)=NN2c2ccccc2)cc1 (stereo not drawn) ?
FALSE

Record request — test call for COc1cc2c3c(n(CCCNCCCCN)c(=O)c2cc1OC)-c1cc2c(cc1C3=O)OCO2
FALSE

So what was the verdict on CC(=O)[CH-]C(=O)c1ccccc1.CC(=O)[CH-]C(=O)c1ccccc1.CC(=O)[CH-]C(=O)c1ccccc1.[Cl-].[Hf+4] in this test?
FALSE

Hello, I am checking results. What call was entered for C/C=C(/C)C(=O)OC1C=C(CO)C(=O)C(OC(=O)C2(C)OC2C)C1C(C)C (stereo not drawn) ?
FALSE

# lookup: test call for Cc1cc2c3c(nc4ccccc42)C(=O)c2cccnc2-c3n1
FALSE

# lookup: test call for Cc1ccc2c(-c3ccnc(Nc4cccc(C(F)(F)F)c4)n3)c(-c3ccccc3)nn2n1
FALSE

Please share the test call associated with CC(=O)NC(CCc1ccc(Cl)c(Cl)c1)c1cccc(O)c(=O)c1 (stereo not drawn) .
FALSE

Record lookup: outcome of this test for CC[C@]1(O)CC2CN(CCc3c([nH]c4ccccc34)C(C(=O)OC)(c3cc4c(cc3OC)N(C=O)[C@H]3[C@@](O)(C(=O)OC)[C@H](OC(C)=O)[C@]5(CC)[C@@H]6C[C@@H]6CN6CC[C@]43[C@@H]65)C2)C1 (stereo partly drawn) ?
TRUE

What classification did Oc1c(Cl)cc(Cl)c(Cl)c1Cc1c(O)c(Cl)cc(Cl)c1Cl end up with in this test?
FALSE
